System: K-562 leukemia
METHOD_NOTES: NCI tumour cell line growth inhibition, 48 h
RECORDED_METRIC: TGI

Cc1ccc2c(c1)C(=O)c1c-2c(OCCCN(C)C)nc2ccccc12 = 2.98 µM
COC(=O)C(CC(=O)Nc1ccc(Cl)c(Cl)c1)C(=O)C(=O)Nc1ccc(Cl)c(Cl)c1 (centres undefined) = > 100 µM

stdin: Consider the compound COC(=O)c1c2c(cc3c1CC1(Cc4cc5c(c(C(C)=O)c4C1)CCCC5)C3)CCCC2 (centres undefined) and give its measured TGI.
stdout: > 100 µM

stdin: Consider the compound Cc1cc(OCCOCCC(F)(F)P(=O)(O)O)ccc1CCc1cnc2c(N)nc3cc(CCC(=O)O)ccc3c2c1 and give its measured TGI.
stdout: > 100 µM

stdin: Consider the compound O=C1CC(=O)NC(=NN2C(=O)CSC2C(=O)c2ccco2)N1 (centres undefined) and give its measured TGI.
stdout: > 100 µM

stdin: Consider the compound CN(C)CCCC1(c2ccc(F)cc2)OCc2cc(-c3cc4ccccc4s3)ccc21 (centres undefined) and give its measured TGI.
stdout: 3.3 µM

stdin: Consider the compound C[C@H]1COCCN1c1cc(C2(S(=O)(=O)C3CC3)CC2)nc(-c2ccc(NC(=S)NCCO)cc2)n1 and give its measured TGI.
stdout: > 100 µM

stdin: Consider the compound OC12c3ccccc3C1CCCCCCCCCC21OCCO1 (centres undefined) and give its measured TGI.
stdout: > 100 µM

stdin: Consider the compound NC(=O)CC(N)C(=O)NC(Cc1ccccc1)C(=O)NC(Cc1ccccc1)NC(=O)C(Cc1c[nH]c2ccccc12)C(=O)O (centres undefined) and give its measured TGI.
stdout: > 100 µM
